Assay target: T1, biotinylated goat anti-human kappa light chain
T1 construct: Positive control of the ELISA
Experiment notes: ELISA; positive control; note: test concentration or dose not given here
The following binders are shown together with reported optical density values.
Numbers only here, please. The scale is OD.

// worked examples, optical density included
{"Binder": "374_F01 (antibody, V domains shown, VH/VL only) VH: EVQLLESGGGLVQPGGSLRLSCAASGFTFDSYSMNWVRQAPGKGLEWVSNINYNGGYTGYADSVKGRFTISRDNSKNTLYLQMNSLRAEDTAVYYCARSANWHDTALDYWGQGTLVTVSS VL: DIQMTQSPSSLSASVGDRVTITCRASQSILSYVNWYQQKPGKAPKLVIYAATSRHSGVPSRFSGSGSGTDFTLTISSLQPEDFATYYCQQSYENPLTFGGGTKVEIK", "optical density [OD]": 3.03}
{"Binder": "369_B12 (antibody, V domains shown, VH/VL only) VH: EVQLLESGGGLVQPGGSLRLSCAASGFTFDSYSMNWVRQAPGKGLEWVSGINYNGGYKSYADSVKGRFTISRDNSKNTLYLQMNSLRAEDTAVYYCARSATWHDTHLDYWGQGTLVTVSS VL: DIQMTQSPSSLSASVGDRVTITCRASQSILTYVNWYQQKPGKAPKLLIYATTSLASGVPSRFSGSGSGTDFTLTISSLQPEDFATYYCQQSYDSPLTFGGGTKVEIK", "optical density [OD]": 3.56}

API: the following record is the query input.
Enquiry: What value of measured optical density is listed for 367_F05 (antibody, V domains shown, VH/VL only) VH: EVQLLESGGGLVQPGGSLRLSCAASGFTFSSYGMNWVRQAPGKGLEWVASINYNGGYTGYADSVKGRFTISRDNSKNTLYLQMNSLRAEDTAVYYCARSATWHDTALDYWGQGTLVTVSS VL: DIQMTQSPSSLSASVGDRVTITCRASQSILSYVNWYQQKPGKAPKLLIYAATSRASGVPSRFSGSGSGTDFTLTISSLQPEDFATYYCQQSYSSPLTFGGGTKVEIK ?
Return: 3.44
